system: Caspase 3; assay: Caspase 3 detection assay in SJSA1 cells; format: cell-based; conditions: 30 μM, SJSA1, 48 h, Caspase 3 activation over DMSO-treated cells
Bridge positions count the residues as written; N and C are the ends. Square brackets hold non-standard residues; d marks the D form. Peptide text beside a SMILES is read from it. Phe(4-COOH) = N[C@@H](Cc1ccc(C(=O)O)cc1)C(=O)O; R8 = C=CCCCCCC[C@@](C)(N)C(=O)O; Cba = N[C@@H](CC1CCC1)C(=O)O; S5 = C=CCCC[C@](C)(N)C(=O)O; Nle = CCCC[C@H](N)C(=O)O
MEASURE: caspase 30 μM
Kindly provide the number alone.

What value of caspase 30 μM has been recorded for this entry: CC[C@H](C)[C@H](NC(=O)[C@H](C)NC(=O)[C@H](C)NC(=O)[C@]1(C)CCCC=CCCCCCC[C@@](C)(NC(=O)[C@H](Cc2ccccc2)NC(=O)[C@@H](NC(=O)[C@H](CC(C)C)NC(C)=O)[C@@H](C)O)C(=O)N[C@@H](C)C(=O)N[C@@H](Cc2ccc(O)cc2)C(=O)N[C@@H](Cc2c[nH]c3ccccc23)C(=O)N[C@@H](C)C(=O)N[C@@H](C)C(=O)N[C@@H](CC(C)C)C(=O)N1)C(=O)N[C@H](C)C(N)=O (single isomer, unassigned)
10

Reported caspase 30 μM, compound CC(=O)N[C@@H](CCC(=O)O)C(=O)N[C@H](C(=O)N[C@@H](Cc1ccccc1)C(=O)N[C@]1(C)CCCCCCC=CCCC[C@@](C)(C(=O)N[C@@H](CO)C(=O)N[C@@H](CC(C)C)C(=O)N[C@@H](C)C(N)=O)NC(=O)[C@H](CC(C)C)NC(=O)[C@H](CCC(N)=O)NC(=O)[C@H](C)NC(=O)[C@H](Cc2c[nH]c3ccccc23)NC(=O)[C@H](Cc2ccc(O)cc2)NC(=O)[C@H](C(C)C)NC1=O)[C@@H](C)O [compound 127] (Ac-ETF[R8]VYWAQL[S5]SLA-NH2; staple 4-11) : ____
13

State the recorded caspase 30 μM for this entry: CC(=O)N[C@@H](CC(C)C)C(=O)N[C@H](C(=O)N[C@@H](Cc1ccccc1)C(=O)N[C@]1(C)CCCCCCC=CCCC[C@@](C)(C(=O)N[C@@H](C)C(=O)N[C@@H](C)C(=O)N[C@H](C(=O)N[C@H](C)C(N)=O)C(C)C)NC(=O)[C@H](CC(C)C)NC(=O)[C@H](CCC(N)=O)NC(=O)[C@H](C)NC(=O)[C@H](Cc2c[nH]c3ccccc23)NC(=O)[C@H](Cc2ccc(O)cc2)NC(=O)[C@H](CCC(=O)O)NC1=O)[C@@H](C)O (single isomer, unassigned)
12

caspase 30 μM lookup needed for CC(=O)N[C@@H](CC(C)C)C(=O)N[C@H](C(=O)N[C@@H](Cc1ccccc1)C(=O)N[C@]1(C)CCCCCCC=CCCC[C@@](C)(C(=O)N[C@@H](C)C(=O)N[C@@H](C)C(=O)N[C@@H](C)C(=O)N[C@H](C)C(N)=O)NC(=O)[C@H](CC(C)C)NC(=O)[C@H](CCC(N)=O)NC(=O)[C@H](C)NC(=O)[C@H](Cc2c[nH]c3ccccc23)NC(=O)[C@H](Cc2ccc(O)cc2)NC(=O)[C@H](C)NC1=O)[C@@H](C)O (single isomer, unassigned) , thanks.
11

// returns reported caspase 30 μM for input CCCC[C@H](NC(=O)[C@H](C)NC(=O)[C@H](CO)NC(=O)[C@]1(C)CCCC=CCCCCCC[C@@](C)(NC(=O)[C@H](Cc2ccccc2)NC(=O)[C@@H](NC(=O)[C@H](CC(C)C)NC(C)=O)[C@@H](C)O)C(=O)N[C@@H](CCC(=O)O)C(=O)N[C@@H](Cc2ccc(C(=O)O)cc2)C(=O)N[C@@H](Cc2c[nH]c3ccccc23)C(=O)N[C@@H](C)C(=O)N[C@@H](CCC(N)=O)C(=O)N[C@@H](CC2CCC2)C(=O)N1)C(=O)N[C@@H](C)C(N)=O [compound 244] (Ac-LTF[R8]E[Phe(4-COOH)]WAQ[Cba][S5]SA[Nle]A-NH2; staple 4-11)
17

Which caspase 30 μM reading was recorded for the compound CC(=O)N[C@@H](CC(C)C)C(=O)N[C@H](C(=O)N[C@@H](Cc1ccccc1)C(=O)N[C@]1(C)CCCCCCC=CCCC[C@@](C)(C(=O)N[C@@H](CO)C(=O)N[C@H](C(=O)N[C@@H](CO)C(N)=O)C(C)C)NC(=O)[C@H](CC(C)C)NC(=O)[C@H](CCC(N)=O)NC(=O)[C@H](C)NC(=O)[C@H](Cc2c[nH]c3ccccc23)NC(=O)[C@H](Cc2ccc(O)cc2)NC(=O)[C@H](C)NC1=O)[C@@H](C)O [compound 121] (Ac-LTF[R8]AYWAQL[S5]SVS-NH2; staple 4-11) ?
30

Quick one: caspase 30 μM of CC(=O)N[C@@H](CC(C)C)C(=O)N[C@H](C(=O)N[C@@H](Cc1ccccc1)C(=O)N[C@]1(C)CCCCCCC=CCCC[C@@](C)(C(=O)N[C@@H](CO)C(=O)N[C@@H](C)C(=O)N[C@@H](CO)C(N)=O)NC(=O)[C@H](CC(C)C)NC(=O)[C@H](CCC(N)=O)NC(=O)[C@H](C)NC(=O)[C@H](Cc2c[nH]c3ccccc23)NC(=O)[C@H](Cc2ccc(O)cc2)NC(=O)[C@H](C)NC1=O)[C@@H](C)O [compound 122] (Ac-LTF[R8]AYWAQL[S5]SAS-NH2; staple 4-11) ?
30

***
Data request, read-out caspase 30 μM, for CC[C@H](C)[C@H](NC(=O)[C@H](C)NC(=O)[C@H](CO)NC(=O)[C@]1(C)CCCC=CCCCCCC[C@@](C)(NC(=O)[C@H](Cc2ccccc2)NC(=O)[C@@H](NC(=O)[C@H](CC(C)C)NC(C)=O)[C@@H](C)O)C(=O)N[C@@H](C)C(=O)N[C@@H](Cc2ccc(O)cc2)C(=O)N[C@@H](Cc2c[nH]c3ccccc23)C(=O)N[C@@H](C)C(=O)N[C@@H](CCC(N)=O)C(=O)N[C@@H](CC(C)C)C(=O)N1)C(N)=O [compound 8] (Ac-LTF[R8]AYWAQL[S5]SAI-NH2; staple 4-11)
25

* * *

This listing pairs compounds with measured 25 μM % Lysed cells (1 h LDH).
test system: SJSA-1 cells; assay: Cell lysis by peptidomimetic macrocycles (LDH release); type: cell-based; settings: 25 μM, SJSA-1, 1 h
Expressed in %, but write only the number.

Need 25 μM % Lysed cells (1 h LDH) of CC[C@H](C)[C@H](NC(=O)[C@H](C)NC(=O)[C@H](C)NC(=O)[C@]1(C)CCCC=CCCCCCC[C@@](C)(NC(=O)[C@H](Cc2ccccc2)NC(=O)[C@@H](NC(=O)[C@H](CC(C)C)NC(C)=O)[C@@H](C)O)C(=O)N[C@@H](CCC(=O)O)C(=O)N[C@@H](Cc2ccc(O)cc2)C(=O)N[C@@H](Cc2c[nH]c3ccccc23)C(=O)N[C@@H](C)C(=O)N[C@@H](CCC(N)=O)C(=O)N[C@@H](CC(C)C)C(=O)N1)C(=O)N[C@H](C)C(N)=O (single isomer, unassigned) , thanks.
1

Please turn your attention to the following entry.
Fill blank: measured 25 μM % Lysed cells (1 h LDH) of the compound CC(=O)N[C@@H](CC(C)C)C(=O)N[C@H](C(=O)N[C@@H](Cc1ccc(F)c(F)c1)C(=O)N[C@]1(C)CCCCCC/C=C/CCC[C@@](C)(C(=O)N[C@@H](CO)C(=O)N[C@@H](C)C(=O)N[C@@H](C)C(N)=O)NC(=O)[C@H](CCC(C)C)NC(=O)[C@H](CCC(N)=O)NC(=O)[C@H](C)NC(=O)[C@H](Cc2c[nH]c3ccccc23)NC(=O)[C@H](Cc2ccc(O)cc2)NC(=O)[C@H](CCC(=O)O)NC1=O)[C@@H](C)O is ____.
−1

* * *

system: SJSA-1 cells; test: Cell lysis by peptidomimetic macrocycles (LDH release); assay type: cell-based; settings: 25 μM, SJSA-1, 1 h
MEASURE: 25 μM % Lysed cells (1 h LDH) (%)
Report as a plain number; the unit % is understood.

Checklist item: 25 μM % Lysed cells (1 h LDH) tested on SJSA-1 cells, entry CC[C@H](C)[C@H](NC(=O)[C@H](C)NC(=O)[C@H](C)NC(=O)[C@]1(C)CCCC=CCCCCCC[C@@](C)(NC(=O)[C@H](Cc2ccccc2)NC(=O)[C@@H](NC(=O)[C@H](CC(C)C)NC(C)=O)[C@@H](C)O)C(=O)N[C@@H](CCC(=O)O)C(=O)N[C@@H](Cc2ccc(C(=O)O)cc2)C(=O)N[C@@H](Cc2c[nH]c3cc(Cl)ccc23)C(=O)N[C@@H](C)C(=O)N[C@@H](CCC(N)=O)C(=O)N[C@@H](CC2CCC2)C(=O)N1)C(=O)N[C@H](C)C(N)=O (single isomer, unassigned) [compound 336] , value?
0
